Target: m-cGAS (Mus musculus)
Assay: RapidFire mass spectrometry (RF-MS) cGAS activity assay, m-cGAS
Conditions: IC50 m-cGAS, RF-MS
ENDPOINT LABEL: pIC50
Please report pIC50 as the negative decimal logarithm of the molar concentration, giving only the number.

Find the recorded pIC50 belonging to Cn1ccc(-c2cc(Cl)c(Cl)c3[nH]c4c(c23)CN(C(=O)CO)CC4)n1 [G140] and report it.
6.35

* * *

Biological target: m-cGAS (Mus musculus, UniProt Q8C6L5)
Sequence (Q8C6L5 whole entry): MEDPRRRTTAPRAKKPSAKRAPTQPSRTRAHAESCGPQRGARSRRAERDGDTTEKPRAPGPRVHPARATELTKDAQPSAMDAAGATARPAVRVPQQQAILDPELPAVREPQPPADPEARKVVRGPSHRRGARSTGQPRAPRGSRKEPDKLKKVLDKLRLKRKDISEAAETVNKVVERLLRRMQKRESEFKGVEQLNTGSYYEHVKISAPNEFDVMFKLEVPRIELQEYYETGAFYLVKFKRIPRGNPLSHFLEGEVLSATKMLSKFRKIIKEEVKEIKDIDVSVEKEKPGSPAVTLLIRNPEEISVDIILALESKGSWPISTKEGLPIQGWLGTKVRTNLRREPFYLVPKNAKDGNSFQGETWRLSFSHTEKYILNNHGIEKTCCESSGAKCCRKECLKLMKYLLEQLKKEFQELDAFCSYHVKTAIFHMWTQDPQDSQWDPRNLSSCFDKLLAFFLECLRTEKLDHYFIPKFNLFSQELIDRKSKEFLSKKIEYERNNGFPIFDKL
Test: RapidFire mass spectrometry (RF-MS) cGAS activity assay, m-cGAS
ENDPOINT LABEL: IC50 (µM)
Value expressed in µM; do not type the unit.

Find the recorded IC50 belonging to Clc1ccc2c(-n3ccnc3)ccnc2c1 and report it.
10.8
